- TEST METHOD NOTES: gradient 5% acetonitrile 3 min, to 50% in 2 min, to 85% in 15 min, held 3 min, 100 µL/min
- CONDITION DESCRIPTION: column: Zorbax Extend-C18 2.1 x 50 mm; eluents: water / acetonitrile, 0.1% formic acid
QUANTITY KIND: RP-LC retention time (s)

RP-LC retention time for Cc1cc(C)cc(NC(=O)Cn2nc3c4cc(F)ccc4ncn3c2=O)c1 is 752

The recorded RP-LC retention time for entry CS(=O)(=O)N1CCC(C(=O)NCc2csc(-c3cccs3)n2)CC1 equals 694

Reported RP-LC retention time for Cc1ccc(C)c(C(=O)NCCc2nc3cccnc3n2C(C)C)c1 was 705

The recorded RP-LC retention time for CN(c1ccc(F)cc1)S(=O)(=O)N1CCCC(C(=O)N2CCN(c3ncccn3)CC2)C1 (stereo not drawn) is 864

RP-LC retention time reported for this compound O=S(=O)(c1ccc(-c2noc(COc3ccc(Cl)cc3)n2)cc1)N1CCOCC1 : 1090

Measured RP-LC retention time of CC1(C(=O)NC2CCCCCC2)CN(S(C)(=O)=O)CC(=O)N1Cc1cccc(F)c1 (stereo not drawn) : 885

Form: compound = CCCOc1cc(N2CCN(S(=O)(=O)CCC)CC2)nc(C)n1 ; RP-LC retention time = 606

RP-LC retention time reported for this compound COCCN(CCNC(=O)c1cc(-c2ccccn2)nc2ccccc12)Cc1ccco1 : 660

The recorded RP-LC retention time for entry Cc1cccc(C(C)c2cnc[nH]2)c1C (stereo not drawn) equals 689

GET /value?item= CC1=C(c2ccccc2)S(=O)(=O)N=C1N1CCCN(C(=O)c2cccc(C#N)c2)CC1 &field=RP-LC retention time returns 777

Looking up Cc1ccc(-n2ccc(=O)c(-c3nc(-c4ccccc4C)no3)n2)cc1C , I found its RP-LC retention time recorded as 1060

Lab note: measured RP-LC retention time of O=C1NCCC1Cc1ccc(C(F)(F)F)cc1 (stereo not drawn) was 710

Item: COc1ccc(-c2cn3c(CC(=O)N4CCN(c5ccc(Cl)cc5)CC4)csc3n2)cc1OC | RP-LC retention time: 816

----------
- TEST METHOD NOTES: gradient 5% acetonitrile 3 min, to 50% in 2 min, to 85% in 15 min, held 3 min, 100 µL/min
- CONDITION DESCRIPTION: column: Zorbax Extend-C18 2.1 x 50 mm; eluents: water / acetonitrile, 0.1% formic acid
QUANTITY KIND: RP-LC retention time (s)

COC(=O)c1cccc(NS(=O)(=O)c2cc3n(c2)CCCNC3=O)c1 yielded RP-LC retention time of 641

a: Cc1cc(Nc2ccc(C(=O)NC3CC3)cc2)n2nc(-c3cccnc3)nc2n1
b: O=C(Nc1cccc(OCc2nnc(-c3ccccc3)o2)c1)c1ccsc1
Which of the two gives a bigger number for RP-LC retention time: a or b ? When you have decided, please share the label of that item.
b

A: COc1ccc(CNC(=O)c2cn3ccc(C)cc3n2)cc1OC
B: CCCCN(C)C(=O)CN1C(=O)CCCc2cc(S(=O)(=O)N3CCC(C)CC3)ccc21
Compare the recorded RP-LC retention time of A and B ; state which is larger. Let me know the label of the one you choose.
B
(B: 971 s, A: 604 s)

----------
- TEST METHOD NOTES: gradient 5% acetonitrile 3 min, to 50% in 2 min, to 85% in 15 min, held 3 min, 100 µL/min
- CONDITION DESCRIPTION: column: Zorbax Extend-C18 2.1 x 50 mm; eluents: water / acetonitrile, 0.1% formic acid
QUANTITY KIND: RP-LC retention time (s)

A: CC(C)NC(=O)C1CCCN(c2cc(=O)n(C)c(=O)n2C)C1 (centres undefined)
B: Cc1cc(C2CCCN2C(=O)Nc2cc(Cl)ccc2C)no1 (centres undefined)
Endpoint returns whichever of A and B has the numerically higher RP-LC retention time. Answer by quoting the chosen item's label.
B
(B: 893 s, A: 595 s)

----------
- TEST METHOD NOTES: gradient 5% acetonitrile 3 min, to 50% in 2 min, to 85% in 15 min, held 3 min, 100 µL/min
- CONDITION DESCRIPTION: column: Zorbax Extend-C18 2.1 x 50 mm; eluents: water / acetonitrile, 0.1% formic acid
QUANTITY KIND: RP-LC retention time (s)

Measured RP-LC retention time, COCCCNC(=O)C1CCCN(c2cnc3nc(C)c(C)nc3c2)C1 (configuration not stated) : 619

The measured RP-LC retention time associated with CN1CCN(Cc2nn(C)c3c2CN(S(=O)(=O)c2ccc(F)c(Cl)c2)CC3)CC1 reads 622

Value of RP-LC retention time reported for the molecule CCn1c(=O)n(CC)c2cc(N3CCCC3)c(NC(=O)CC(=O)OC)cc21 is 583

Data point: CCCn1cc(S(=O)(=O)Nc2ccc(F)cc2C)c2cccnc21 ; RP-LC retention time = 926

The molecule listed as Cc1cccc(C)c1NC(=O)Cn1nc2nc(N3CCCC(C)C3)ccn2c1=O (configuration not stated) has a reported RP-LC retention time of 787

Value of RP-LC retention time reported for the molecule CCOC(=O)c1nc(NCCCN2CCN(c3cc(Cl)ccc3C)CC2)c2ccccc2n1 is 731

Field RP-LC retention time (entry O=C(Cc1ccc(Br)cc1)N1CCN(c2cc(-c3ccc(Cl)cc3)[nH]n2)CC1 ) reads 953

The value of RP-LC retention time measured for the molecule CC1CCCN(c2nccn3c(=O)n(CC(=O)Nc4ccc(Br)cc4F)nc23)C1 (configuration not stated) turned out to be 911

# RP-LC retention time (molecule: CCn1ccc2c(cc(C(=O)Nc3cccc(OC)c3)n2C)c1=O ) is 748

So for Cc1nn2c(CNS(=O)(=O)Cc3ccccc3)c(-c3ccccc3)nc2s1 , the logged RP-LC retention time turned out to be 876

I: CCS(=O)(=O)c1nc2ccc(NS(=O)(=O)c3c(C)n[nH]c3C)cc2s1
II: Cc1ccc(CNC(=O)c2nnc(-c3ccc(S(=O)(=O)N4CCCCC4)cc3)o2)cc1
Please indicate which has the smaller reported RP-LC retention time: I , or II . // return label of chosen record
I

----------
- TEST METHOD NOTES: gradient 5% acetonitrile 3 min, to 50% in 2 min, to 85% in 15 min, held 3 min, 100 µL/min
- CONDITION DESCRIPTION: column: Zorbax Extend-C18 2.1 x 50 mm; eluents: water / acetonitrile, 0.1% formic acid
QUANTITY KIND: RP-LC retention time (s)

Worked examples, 5 compounds total:
The recorded RP-LC retention time for entry CCS(=O)(=O)N1CCc2c(c(CN(C(=O)c3ccc(F)cc3)c3ccccc3)nn2C)C1 equals 804

Query CCc1nnc([C@@H]2CC(F)(F)CN2C(=O)CCn2nc(C)cc2C)o1 yields RP-LC retention time of 666

Kindly note the recorded RP-LC retention time for CN(C)c1ccc(C(=O)N2CCC(COc3ccc(C(=O)N4CCCCC4)cc3)CC2)cc1 , which is 929

Noted for CCn1ccc(C(=O)N2CCCN(C3=NS(=O)(=O)C(c4ccc(F)cc4)=C3C)CC2)n1 : its RP-LC retention time reads 759

Entry O=C(O)c1cn(CCOc2ccccc2)c2ccccc12 , RP-LC retention time reported as 885

1: Cc1cc(NS(=O)(=O)c2ccc(-c3c(C)noc3C)cc2)ccc1Br
2: CC(C)N1CCN(Cc2nc(-c3ccc(N(C)Cc4ccccc4)nc3)no2)CC1
Name the one with the greater RP-LC retention time value, either 1 or 2 as given. // return label of chosen record
1
(1: 1030 s, 2: 661 s)

P: Cc1sc2ccn(C)c(=O)c2c1C(=O)NCc1ccccc1F
Q: Cc1ccccc1-n1c(=O)c2sccc2n(Cc2nc(-c3ccc(Br)cc3)no2)c1=O
Compare P and Q by numeric RP-LC retention time and name the larger one. Output the label that corresponds to your choice.
Q
(Q: 1120 s, P: 751 s)

P: COc1ccccc1CNC(=O)C1CCN(S(C)(=O)=O)c2cc(Cl)ccc2O1 (configuration not stated)
Q: CCOC(=O)C1=C(CN2CCN(C(C)CC)CC2)NC(=O)NC1c1ccc(F)cc1 (configuration not stated)
Field: entry with larger RP-LC retention time (options P / Q ). Your answer should be the label attached to the chosen record.
P

A: O=C(NCCCN1CCCC1)c1ccc2nc(Cc3ccccc3)oc2c1
B: Cc1ccccc1S(=O)(=O)N1CCC(OCCOCc2ccccc2)CC1
For this pair, A and B , which shows a numerically higher RP-LC retention time? Pick one and reply with its label.
B

----------
- TEST METHOD NOTES: gradient 5% acetonitrile 3 min, to 50% in 2 min, to 85% in 15 min, held 3 min, 100 µL/min
- CONDITION DESCRIPTION: column: Zorbax Extend-C18 2.1 x 50 mm; eluents: water / acetonitrile, 0.1% formic acid
QUANTITY KIND: RP-LC retention time (s)

Some compounds with known RP-LC retention time results, for comparison:
The recorded RP-LC retention time for entry CCC(=O)Oc1ccc(N(C)C2=NS(=O)(=O)c3ccccc32)cc1 equals 859

RP-LC retention time recorded for this compound, COCCCNC(=O)C1CC(=O)N(CCc2c[nH]c3ccc(C)cc23)C1 (configuration not stated) , is 667

Entry under test: Cc1ccc(-c2noc(C(=O)N3CCOCC3)n2)cc1S(=O)(=O)N1CCN(c2ncccn2)CC1 . Its RP-LC retention time was 906

Field RP-LC retention time (entry CCN1C(=O)CCc2cc(NC(=O)CCc3ccccc3OC)ccc21 ) reads 787

Reported RP-LC retention time ( Cc1ccccc1-c1nc2cnccn2c1NCCC(=O)NCc1cc(F)cc(F)c1 ) = 693

1: COCC(=O)NC1CCC12CCN(C(=O)C1CCC1)CC2 (configuration not stated)
2: Cc1ccc(N2CCC(NC(=O)c3ccc(C(F)(F)F)cc3)C2=O)cc1 (configuration not stated)
Please let me know which one, 1 or 2 , has a lower measured RP-LC retention time value. Your answer should be the label of the entry you select.
1
(1: 661 s, 2: 953 s)
